Below, each entry is listed alongside its reported IC50.
systemTested: Vascular endothelial growth factor receptor 2 (Homo sapiens, UniProt P35968)
Sequence (P35968 whole entry): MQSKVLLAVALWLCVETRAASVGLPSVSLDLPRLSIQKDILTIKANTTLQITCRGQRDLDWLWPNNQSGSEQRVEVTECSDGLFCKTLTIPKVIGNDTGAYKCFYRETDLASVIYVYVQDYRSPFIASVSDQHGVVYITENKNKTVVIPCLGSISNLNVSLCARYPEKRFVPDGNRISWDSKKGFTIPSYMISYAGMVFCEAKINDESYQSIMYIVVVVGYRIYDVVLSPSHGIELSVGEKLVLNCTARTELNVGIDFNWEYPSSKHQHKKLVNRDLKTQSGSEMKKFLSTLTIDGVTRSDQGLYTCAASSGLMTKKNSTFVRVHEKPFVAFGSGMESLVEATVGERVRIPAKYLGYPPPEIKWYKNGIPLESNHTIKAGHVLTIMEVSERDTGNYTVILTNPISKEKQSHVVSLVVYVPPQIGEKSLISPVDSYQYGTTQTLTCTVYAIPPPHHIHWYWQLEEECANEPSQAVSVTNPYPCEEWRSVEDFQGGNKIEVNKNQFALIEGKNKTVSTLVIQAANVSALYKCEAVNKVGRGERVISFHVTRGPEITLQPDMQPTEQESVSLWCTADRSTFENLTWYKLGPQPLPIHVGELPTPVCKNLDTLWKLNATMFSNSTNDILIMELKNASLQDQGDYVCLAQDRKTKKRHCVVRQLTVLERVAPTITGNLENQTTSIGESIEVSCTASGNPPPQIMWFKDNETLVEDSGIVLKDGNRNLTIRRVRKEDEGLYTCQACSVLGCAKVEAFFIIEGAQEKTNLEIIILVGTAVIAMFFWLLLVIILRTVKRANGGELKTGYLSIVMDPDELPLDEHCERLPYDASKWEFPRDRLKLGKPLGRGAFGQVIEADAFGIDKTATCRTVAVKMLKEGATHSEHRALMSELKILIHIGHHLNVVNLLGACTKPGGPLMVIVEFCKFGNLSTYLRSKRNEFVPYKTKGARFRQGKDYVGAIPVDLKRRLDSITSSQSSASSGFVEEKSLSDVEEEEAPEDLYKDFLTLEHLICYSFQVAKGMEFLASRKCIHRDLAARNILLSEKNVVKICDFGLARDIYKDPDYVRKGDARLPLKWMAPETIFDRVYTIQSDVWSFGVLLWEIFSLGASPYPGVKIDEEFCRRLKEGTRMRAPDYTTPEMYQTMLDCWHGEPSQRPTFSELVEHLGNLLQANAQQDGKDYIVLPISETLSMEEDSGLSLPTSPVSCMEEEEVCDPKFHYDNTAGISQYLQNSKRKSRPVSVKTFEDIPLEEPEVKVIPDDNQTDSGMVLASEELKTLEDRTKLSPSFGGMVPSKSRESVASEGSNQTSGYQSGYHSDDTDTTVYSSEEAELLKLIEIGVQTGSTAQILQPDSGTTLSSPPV
assay: Inhibition of human N-terminal GST tagged VEGFR-2 expressed in baculovirus infected Sf9 cells using poly (Glu,Tyr) 4:1 as substrate in presence of ATP by Kinase-Glo luminescence assay
Unit nM implied. Number only.

Solved entries:
smilesStr | IC50 (nM)
CC(=O)c1cccc(Nc2ccnc(SCC(=O)c3ccc(Cl)cc3)n2)c1 | 480
COc1ccc(C(=O)CSc2nccc(Nc3ccc(C(=O)O)cc3)n2)cc1 | 1430
O=C(CSc1nccc(Nc2ccc(N3CCOCC3)cc2)n1)c1ccc(F)cc1 | 260

Just so you know, measured IC50 for CC(=O)c1ccc(Nc2ccnc(SCC(=O)c3ccc(-c4ccccc4)cc3)n2)cc1 came out at 280

Entry O=C(CSc1nccc(Nc2ccc(N3CCOCC3)cc2)n1)c1ccc(Cl)cc1 ; IC50 = 1900

* * *

Tested on: KM12
assay: Growth inhibition of human KM12 cells at 10 uM incubated for 48 hrs by sulforhodamine B assay relative to control
Type: functional
details: KM12, 48 h, read-out: GI
Threshold rule: inhibition of growth at 10 µM greater than or equal to 20% is criterion met; below that, criterion not met.

smilesStr | classLabel
CC(=O)c1ccc(Nc2ccnc(SCC(=O)c3ccc(-c4ccccc4)cc3)n2)cc1 | criterion met
CCOC(=O)c1ccc(Nc2ccnc(SCC(=O)c3ccc(C#N)cc3)n2)cc1 | criterion met
CC(=O)c1ccc(Nc2ccnc(SCC(=O)c3ccc(Cl)cc3)n2)cc1 | criterion not met
CCOC(=O)c1ccc(Nc2ccnc(SCC(=O)c3ccc([N+](=O)[O-])cc3)n2)cc1 | criterion met

Let's switch to this compound now.
Inquiry: Please tell me: is the compound COc1ccc(C(=O)CSc2nccc(Nc3cccc(C(C)=O)c3)n2)cc1 at or over 20% in terms of inhibition of growth at 10 µM?
Reply text: criterion not met

* * *

Values of IC50 reported for Serine/threonine-protein kinase B-raf (Homo sapiens, UniProt P15056) appear below.
Output spec: scalar in nM, unitless text.

A selection of reference data follows.
smilesStr | IC50 [nM]
CCOC(=O)c1ccc(Nc2ccnc(SCC(=O)c3ccc(C#N)cc3)n2)cc1 | 150
COc1ccc(C(=O)CSc2nccc(Nc3ccc(N4CCOCC4)cc3)n2)cc1 | 440

Continue with the next compound.
IC50 for Serine/threonine-protein kinase B-raf (Homo sapiens, UniProt P15056) with input N#Cc1ccc(C(=O)CSc2nccc(Nc3ccc(C(=O)O)cc3)n2)cc1 equals 1700

* * *

Test system: NCI-H23
assay: Growth inhibition of human NCI-H23 cells at 10 uM incubated for 48 hrs by sulforhodamine B assay relative to control
Format: functional
details: NCI-H23, 48 h, read-out: GI
Outcome: rule met for inhibition of growth at 10 µM of at least 20%; rule not met for anything lower.

smilesStr | systemTested | classLabel
CC(=O)c1cccc(Nc2ccnc(SCC(=O)c3ccc(C(F)(F)F)cc3)n2)c1 | NCI-H23 | rule met
O=C(CSc1nccc(Nc2ccc(N3CCOCC3)cc2)n1)c1ccc(F)cc1 | NCI-H23 | rule met

Inquiry: Please indicate if the recorded inhibition of growth at 10 µM for CC(=O)c1ccc(Nc2ccnc(SCC(=O)c3ccc(Cl)cc3)n2)cc1 meets or exceeds 20%.
Reply text: rule not met

Inquiry: Could you verify whether the entry COc1ccc(C(=O)CSc2nccc(Nc3ccc(N4CCOCC4)cc3)n2)cc1 shows inhibition of growth at 10 µM of no less than 20%?
Reply text: rule not met

Inquiry: Check the entry COc1ccc(C(=O)CSc2nccc(Nc3cccc(C(C)=O)c3)n2)cc1 : does inhibition of growth at 10 µM equal or exceed 20%?
Reply text: rule not met

* * *

Test system: MCF7
assay: Growth inhibition of human MCF7 cells at 10 uM incubated for 48 hrs by sulforhodamine B assay relative to control
Format: functional
details: MCF7, 48 h, read-out: GI
Examples of compounds with documented inhibition of growth at 10 µM follow.
# unit: % | format: bare number

Here O=C(CSc1nccc(Nc2ccc(N3CCOCC3)cc2)n1)c1ccc(F)cc1 was tested on MCF7, and its inhibition of growth at 10 µM came to 31

Form field inhibition of growth at 10 µM for item CC(=O)c1ccc(Nc2ccnc(SCC(=O)c3ccc(Cl)cc3)n2)cc1 on MCF7: 19

The measured inhibition of growth at 10 µM that CCOC(=O)c1ccc(Nc2ccnc(SCC(=O)c3ccc([N+](=O)[O-])cc3)n2)cc1 showed for MCF7 is 22

Item CC(=O)c1cccc(Nc2ccnc(SCC(=O)c3ccc(C(F)(F)F)cc3)n2)c1 was tested on MCF7; the reported inhibition of growth at 10 µM is 26

Noted inhibition of growth at 10 µM for CC(=O)c1cccc(Nc2ccnc(SCC(=O)c3ccc(-c4ccccc4)cc3)n2)c1 , tested on MCF7: 12

Record CCOC(=O)c1ccc(Nc2ccnc(SCC(=O)c3ccc(C#N)cc3)n2)cc1 has MCF7 inhibition of growth at 10 µM equal to 33

# inhibition of growth at 10 µM measured on MCF7 for item CC(=O)c1ccc(Nc2ccnc(SCC(=O)c3ccc(Br)cc3)n2)cc1 = 18

Entry COc1ccc(C(=O)CSc2nccc(Nc3cccc(C(C)=O)c3)n2)cc1 , MCF7 data, inhibition of growth at 10 µM value: 11

Simply: COc1ccc(C(=O)CSc2nccc(Nc3ccc(N4CCOCC4)cc3)n2)cc1 , MCF7, inhibition of growth at 10 µM = 17

* * *

Tested on: MDA-MB-231
assay: Growth inhibition of human MDA-MB-231 cells at 10 uM incubated for 48 hrs by sulforhodamine B assay relative to control
Type: functional
details: MDA-MB-231, 48 h, read-out: GI
endpointLabel: inhibition of growth at 10 µM (%)
Give the number; % is assumed, so skip it.

For this compound ( COc1ccc(C(=O)CSc2nccc(Nc3cccc(C(C)=O)c3)n2)cc1 ), measured inhibition of growth at 10 µM is 27

* * *

systemTested: RAF proto-oncogene serine/threonine-protein kinase (Homo sapiens, UniProt P04049)
Sequence (P04049 whole entry): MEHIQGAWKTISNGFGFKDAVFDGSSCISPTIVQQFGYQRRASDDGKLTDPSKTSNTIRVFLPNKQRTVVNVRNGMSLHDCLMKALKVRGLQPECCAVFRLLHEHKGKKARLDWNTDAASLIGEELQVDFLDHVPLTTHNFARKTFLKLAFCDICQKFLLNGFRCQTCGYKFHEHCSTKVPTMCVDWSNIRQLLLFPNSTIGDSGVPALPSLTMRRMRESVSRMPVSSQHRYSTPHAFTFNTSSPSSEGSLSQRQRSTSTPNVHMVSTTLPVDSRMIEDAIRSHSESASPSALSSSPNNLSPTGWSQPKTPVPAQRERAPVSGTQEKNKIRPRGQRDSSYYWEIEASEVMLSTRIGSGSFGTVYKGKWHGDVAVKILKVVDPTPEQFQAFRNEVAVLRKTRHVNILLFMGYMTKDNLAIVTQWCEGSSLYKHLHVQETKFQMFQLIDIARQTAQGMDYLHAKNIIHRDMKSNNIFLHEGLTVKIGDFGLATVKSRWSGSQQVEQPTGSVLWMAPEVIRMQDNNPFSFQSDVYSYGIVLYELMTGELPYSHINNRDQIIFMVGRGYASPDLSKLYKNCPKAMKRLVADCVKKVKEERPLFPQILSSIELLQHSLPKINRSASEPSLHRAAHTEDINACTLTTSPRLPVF
endpointLabel: IC50

RAF proto-oncogene serine/threonine-protein kinase (Homo sapiens, UniProt P04049) assay, compound CCOC(=O)c1ccc(Nc2ccnc(SCC(=O)c3ccc(C#N)cc3)n2)cc1 , recorded IC50 = 0.41 µM

* * *

Tested on: A549
assay: Growth inhibition of human A549/ATCC cells at 10 uM incubated for 48 hrs by sulforhodamine B assay relative to control
Format: functional
details: A549, 48 h, read-out: GI
# key: entry, value: inhibition of growth at 10 µM

smilesStr | inhibition of growth at 10 µM
CC(=O)c1ccc(Nc2ccnc(SCC(=O)c3ccc(Cl)cc3)n2)cc1 | 20%
O=C(O)c1ccc(Nc2ccnc(SCC(=O)c3ccc(C(F)(F)F)cc3)n2)cc1 | 10%
CC(=O)c1cccc(Nc2ccnc(SCC(=O)c3ccc(-c4ccccc4)cc3)n2)c1 | 14%
CCOC(=O)c1ccc(Nc2ccnc(SCC(=O)c3ccc(C#N)cc3)n2)cc1 | 39%

Let us move to another entry and its inhibition of growth at 10 µM.
Form field inhibition of growth at 10 µM, entry CC(=O)c1ccc(Nc2ccnc(SCC(=O)c3ccc(-c4ccccc4)cc3)n2)cc1 : 20%

* * *

systemTested: Vascular endothelial growth factor receptor 2 (Homo sapiens)
assay: Inhibition of human N-terminal GST tagged VEGFR-2 expressed in baculovirus infected Sf9 cells using poly (Glu,Tyr) 4:1 as substrate in presence of ATP by Kinase-Glo luminescence assay
We begin with a simple list: items and their reported IC50.
Quick note: give the figure in nM, leave out the unit.

smilesStr | IC50 (nM)
COc1ccc(C(=O)CSc2nccc(Nc3cccc(C(C)=O)c3)n2)cc1 | 420

Vascular endothelial growth factor receptor 2 (Homo sapiens) assay, molecule CCOC(=O)c1ccc(Nc2ccnc(SCC(=O)c3ccc(-c4ccccc4)cc3)n2)cc1 , recorded IC50 = 340

* * *

System: SF-539
assay: Growth inhibition of human SF539 cells at 10 uM incubated for 48 hrs by sulforhodamine B assay relative to control
Format: functional
details: SF-539, 48 h, read-out: GI
endpointLabel: inhibition of growth at 10 µM (%)
Answer format: numeric, % implied, no suffix.

Examples with their reported inhibition of growth at 10 µM follow.
smilesStr | endpointLabel | unitText | readoutNumber
O=C(CSc1nccc(Nc2ccc(N3CCOCC3)cc2)n1)c1ccc(Cl)cc1 | inhibition of growth at 10 µM | % | 15
CC(=O)c1ccc(Nc2ccnc(SCC(=O)c3ccc(-c4ccccc4)cc3)n2)cc1 | inhibition of growth at 10 µM | % | 13
CCOC(=O)c1ccc(Nc2ccnc(SCC(=O)c3ccc(C#N)cc3)n2)cc1 | inhibition of growth at 10 µM | % | 17
COc1ccc(C(=O)CSc2nccc(Nc3cccc(C(C)=O)c3)n2)cc1 | inhibition of growth at 10 µM | % | 12
CCOC(=O)c1ccc(Nc2ccnc(SCC(=O)c3ccc([N+](=O)[O-])cc3)n2)cc1 | inhibition of growth at 10 µM | % | 11

Lab note: CC(=O)c1cccc(Nc2ccnc(SCC(=O)c3ccc(-c4ccccc4)cc3)n2)c1 gave inhibition of growth at 10 µM of 11

Hello, the source for this data is ChEMBL document CHEMBL4396916, in case you need it.
